# system name: T1, human MSLN-R1-his protein (human, UniProt Q13421 296-390)
# T1 construct: also called hMSLN-R1-his; human MSLN-R1 protein; not shown: His tag
# T1 chain: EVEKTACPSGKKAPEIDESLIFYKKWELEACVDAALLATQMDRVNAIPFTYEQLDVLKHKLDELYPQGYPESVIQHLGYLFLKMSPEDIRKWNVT
# test protocol: ELISA, coated antigen; antibody 0.01 nM
readout label: OD450
Answer as a number with no unit attached.

Use the examples below as a reference point.
{"columns": ["binder", "OD450"],
 "data": [
  ["S009-F1.62.9 human-murine chimeric antibody (antibody, human IgG1, kappa, V domains shown, Chimeric IgG1/kappa) VH: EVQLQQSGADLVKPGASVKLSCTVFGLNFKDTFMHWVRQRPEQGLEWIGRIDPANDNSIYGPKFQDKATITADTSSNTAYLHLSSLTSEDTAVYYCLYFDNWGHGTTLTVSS VL: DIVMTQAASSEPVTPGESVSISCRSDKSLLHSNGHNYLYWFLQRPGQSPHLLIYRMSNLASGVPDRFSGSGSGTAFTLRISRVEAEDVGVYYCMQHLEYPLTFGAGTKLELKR", 0.05],
  ["S009-F1.2.12 human-murine chimeric antibody (antibody, human IgG1, kappa, V domains shown, Chimeric IgG1/kappa) VH: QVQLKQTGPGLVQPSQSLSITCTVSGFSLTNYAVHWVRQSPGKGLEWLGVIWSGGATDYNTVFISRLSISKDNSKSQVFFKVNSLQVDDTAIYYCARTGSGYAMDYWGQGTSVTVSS VL: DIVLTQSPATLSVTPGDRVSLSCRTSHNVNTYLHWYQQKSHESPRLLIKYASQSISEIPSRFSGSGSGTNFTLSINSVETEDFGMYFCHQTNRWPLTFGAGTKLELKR", 0.04]
]}

Problem: In one line, give reported OD450 of the entry S009-F1.56.1 human-murine chimeric antibody (antibody, human IgG1, kappa, V domains shown, Chimeric IgG1/kappa) VH: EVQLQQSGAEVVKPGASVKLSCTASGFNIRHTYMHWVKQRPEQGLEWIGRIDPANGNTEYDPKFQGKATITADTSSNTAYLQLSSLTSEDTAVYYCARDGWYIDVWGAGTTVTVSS VL: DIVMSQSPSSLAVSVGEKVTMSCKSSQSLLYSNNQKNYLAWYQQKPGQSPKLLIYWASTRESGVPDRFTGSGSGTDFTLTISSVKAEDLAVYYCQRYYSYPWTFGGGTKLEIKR .
Result: 0.03
